Test system: CP335
PROTOCOL SUMMARY: qHTS profiling for inhibitors of Plasmodium falciparum proliferation (AID 504749); further: nearly all actives have a fitted effect of over 60% in size
EXPERIMENTAL PARAMETERS: P. falciparum in erythrocytes, SYBR Green DNA, 72 h; series mostly up to 28.7 µM
Results filed as inconclusive are left out. The source made the active and inactive calls. The call rests on the fitted dose curve; in most records, active means well fitted inhibition curve with a large enough effect; inconclusive means small, poorly fitted or top-dose-only effect; inactive means flat fitted curve, though single readings scatter.
Outcomes: label 1 = active, label 0 = inactive

                                   compound  experimental_system    group
0          CCN(CC)CCNC(=O)c1cc(Cl)c(N)cc1OC                CP335  label 0
1  CCCCN(CCCC)CC(O)c1cc(Cl)cc2c1-c1ccc(Cl)cc1/C2=C/c1ccc(Cl)cc1 (stereo not drawn)                CP335  label 1
2          Nc1nc2c(ncn2CCC(CO)CO)c(=O)[nH]1                CP335  label 0
3                            CC(=O)CCC(=O)O                CP335  label 0
4                  CCCCCCCCCCCCCCCC(=O)NCCO                CP335  label 0
5             CC(=O)Nc1ccc(/C=N/NC(N)=S)cc1                CP335  label 0
6                        O=C(O)[C@@H]1CSCN1                CP335  label 0
7  CC(O)CN(CCN(CC(C)O)CC(C)O)CC(C)O (stereo not drawn)                CP335  label 0
